# protocol.summary: INCB001158 plasma pharmacokinetics (LC-MS/MS, noncompartmental analysis)
# Type: in vivo, Japanese patients
# condition.summary: human, plasma, oral, 100 mg, steady‐state, 100‐mg BID monotherapy; read-out: INCB001158 geometric mean Cmax
property.label: Cmax (ng/mL)
Express it in ng/mL; write the number only.

For the molecule shown here, C[C@H](N)C(=O)N1C[C@H](CCCB(O)O)[C@](N)(C(=O)O)C1 [INCB001158] , give the reported Cmax.
2690

###

# protocol.summary: INCB001158 plasma pharmacokinetics (LC-MS/MS, noncompartmental analysis)
# Type: in vivo, Japanese patients
# condition.summary: human, plasma, po, 75 mg, steady-state, 75 mg BID oral, n = 3; median (min, max); read-out: INCB001158 tmax
property.label: Tmax (h)
Please respond with the number in h and leave the unit unwritten.

Returns the measured Tmax for the input compound. Input: C[C@H](N)C(=O)N1C[C@H](CCCB(O)O)[C@](N)(C(=O)O)C1
3.9

###

# protocol.summary: INCB001158 plasma pharmacokinetics (LC-MS/MS, noncompartmental analysis)
# Format: in vivo, Japanese patients
# condition.summary: human, plasma, oral, 100 mg, first dose, 100 mg BID monotherapy; read-out: INCB001158 geometric mean AUCtau
property.label: AUC (ng·h/mL)
Reply numerically in ng·h/mL, unit not repeated.

So what does the record say about AUC for C[C@H](N)C(=O)N1C[C@H](CCCB(O)O)[C@](N)(C(=O)O)C1 ?
13700

###

# protocol.summary: INCB001158 plasma pharmacokinetics (LC-MS/MS, noncompartmental analysis)
# Type: in vivo, Japanese patients
# condition.summary: human, plasma, oral, 100 mg, first dose, 100 mg BID monotherapy; read-out: INCB001158 geometric mean AUC0‐∞
property.label: AUC (ng·h/mL)
Just the number please, in ng·h/mL, no unit attached.

Record request: AUC value, item C[C@H](N)C(=O)N1C[C@H](CCCB(O)O)[C@](N)(C(=O)O)C1
17900

Origin of measurements: paper PMC11036078
